I'd appreciate it if you could supply pEC50 values for the items below.
assayed.system: human TLR8 (Homo sapiens)
Sequence (Q9NR97 27-1041): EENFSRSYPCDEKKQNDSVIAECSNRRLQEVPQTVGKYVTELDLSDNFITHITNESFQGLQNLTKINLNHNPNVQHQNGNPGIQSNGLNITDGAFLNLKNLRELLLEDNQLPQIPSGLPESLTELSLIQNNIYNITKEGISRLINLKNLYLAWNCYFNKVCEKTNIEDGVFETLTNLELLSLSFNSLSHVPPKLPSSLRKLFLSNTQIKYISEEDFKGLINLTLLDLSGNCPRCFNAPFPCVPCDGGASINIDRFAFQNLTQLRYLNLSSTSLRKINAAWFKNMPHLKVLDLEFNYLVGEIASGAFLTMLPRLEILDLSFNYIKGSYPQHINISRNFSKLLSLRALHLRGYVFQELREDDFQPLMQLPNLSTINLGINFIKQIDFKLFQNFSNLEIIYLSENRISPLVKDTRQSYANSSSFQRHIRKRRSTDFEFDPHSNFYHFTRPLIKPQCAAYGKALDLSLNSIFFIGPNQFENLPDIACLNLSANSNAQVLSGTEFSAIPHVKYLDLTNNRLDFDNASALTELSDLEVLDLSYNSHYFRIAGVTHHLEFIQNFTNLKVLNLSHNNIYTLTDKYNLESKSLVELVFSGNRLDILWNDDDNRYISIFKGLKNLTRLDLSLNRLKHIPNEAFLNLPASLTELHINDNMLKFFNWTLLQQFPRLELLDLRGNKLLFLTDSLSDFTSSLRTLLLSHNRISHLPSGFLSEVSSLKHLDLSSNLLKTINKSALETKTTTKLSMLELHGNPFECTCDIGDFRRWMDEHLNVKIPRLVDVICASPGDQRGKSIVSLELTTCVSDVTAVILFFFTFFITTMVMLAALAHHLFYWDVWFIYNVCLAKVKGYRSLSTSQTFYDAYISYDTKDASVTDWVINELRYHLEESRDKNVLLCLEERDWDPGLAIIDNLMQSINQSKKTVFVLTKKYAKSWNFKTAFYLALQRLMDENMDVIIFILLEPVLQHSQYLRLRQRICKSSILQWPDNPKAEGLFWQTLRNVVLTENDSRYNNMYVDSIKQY
protocol: HEK Reporter Assay, HEK293 reporter cells expressing human TLR8
setup.conditions: HEK293 NFKB reporter cells expressing human TLR8; read-out: HEK293 hTLR8 EC50
Answers are plain numbers, as −log10 of the molar value.

Below, each entry is followed by its recorded pEC50 result.
smiles.record	pEC50
CCCN(OCCO)C(=O)C1=Cc2ccc(-c3cccc(S(=O)(=O)N4CC(CN)C4)c3)cc2N=C(N)C1	6.09
CCCN(CCO)C(=O)C1=Cc2ccc(-c3cccc(S(=O)(=O)N4CC(CNC(=O)OC(C)(C)C)C4)c3)cc2N=C(N)C1	6.37

Now turn to the next compound.
// map `CCCN(CCCCO)C(=O)C1=Cc2ccc(-c3cccc(S(=O)(=O)N4CC(CNC(=O)OC(C)(C)C)C4)c3)cc2N=C(N)C1` to recorded pEC50 (system: human TLR8 (Homo sapiens))
5.97

---

assayed.system: human TLR7 (Homo sapiens)
Sequence (Q9NYK1 27-1049): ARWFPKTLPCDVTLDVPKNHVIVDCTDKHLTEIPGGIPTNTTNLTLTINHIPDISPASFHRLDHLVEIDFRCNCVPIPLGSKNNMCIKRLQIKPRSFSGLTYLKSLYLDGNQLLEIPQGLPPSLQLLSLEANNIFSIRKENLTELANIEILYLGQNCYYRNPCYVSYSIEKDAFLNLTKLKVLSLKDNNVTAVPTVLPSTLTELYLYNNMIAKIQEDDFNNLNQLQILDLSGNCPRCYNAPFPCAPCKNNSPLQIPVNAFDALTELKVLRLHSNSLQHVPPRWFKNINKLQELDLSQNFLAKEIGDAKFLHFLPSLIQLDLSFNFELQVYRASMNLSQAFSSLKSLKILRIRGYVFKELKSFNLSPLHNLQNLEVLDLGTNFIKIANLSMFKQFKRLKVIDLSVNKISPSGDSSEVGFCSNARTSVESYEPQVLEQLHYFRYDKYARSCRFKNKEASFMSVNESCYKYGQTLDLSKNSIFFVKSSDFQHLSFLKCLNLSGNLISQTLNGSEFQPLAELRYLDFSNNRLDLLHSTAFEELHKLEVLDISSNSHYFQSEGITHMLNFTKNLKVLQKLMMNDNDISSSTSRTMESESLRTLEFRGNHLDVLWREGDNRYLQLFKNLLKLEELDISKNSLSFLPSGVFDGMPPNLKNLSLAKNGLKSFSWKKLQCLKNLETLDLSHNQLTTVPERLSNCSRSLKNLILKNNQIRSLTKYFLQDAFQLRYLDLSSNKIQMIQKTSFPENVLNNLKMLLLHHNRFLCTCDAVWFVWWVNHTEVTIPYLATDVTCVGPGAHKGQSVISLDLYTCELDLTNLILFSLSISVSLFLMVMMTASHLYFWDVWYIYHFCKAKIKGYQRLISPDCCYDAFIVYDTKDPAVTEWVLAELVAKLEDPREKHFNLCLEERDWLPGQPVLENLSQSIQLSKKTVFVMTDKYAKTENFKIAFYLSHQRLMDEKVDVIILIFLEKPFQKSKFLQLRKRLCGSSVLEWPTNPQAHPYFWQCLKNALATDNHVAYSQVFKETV
protocol: HEK Reporter Assay, HEK293 reporter cells expressing human TLR7
setup.conditions: HEK293 NFKB reporter cells expressing human TLR7; read-out: HEK293 hTLR7 EC50
I'd appreciate it if you could supply pEC50 values for the items below.
Answers are plain numbers, as −log10 of the molar value.

compound	pEC50
CCCN(CCO)C(=O)C1=Cc2ccc(-c3cccc(S(=O)(=O)N4CC(CNC(=O)OC(C)(C)C)C4)c3)cc2N=C(N)C1 [PhBz-21]	5.45

Now turn to the next compound.
Any idea what its pEC50 is? The compound is CCCN(CCCCO)C(=O)C1=Cc2ccc(-c3cccc(S(=O)(=O)N4CC(CNC(=O)OC(C)(C)C)C4)c3)cc2N=C(N)C1 [PhBz-9]
5.29
